Target: human 5-HT2C receptor (Homo sapiens, UniProt P28335)
Sequence (P28335 33-458): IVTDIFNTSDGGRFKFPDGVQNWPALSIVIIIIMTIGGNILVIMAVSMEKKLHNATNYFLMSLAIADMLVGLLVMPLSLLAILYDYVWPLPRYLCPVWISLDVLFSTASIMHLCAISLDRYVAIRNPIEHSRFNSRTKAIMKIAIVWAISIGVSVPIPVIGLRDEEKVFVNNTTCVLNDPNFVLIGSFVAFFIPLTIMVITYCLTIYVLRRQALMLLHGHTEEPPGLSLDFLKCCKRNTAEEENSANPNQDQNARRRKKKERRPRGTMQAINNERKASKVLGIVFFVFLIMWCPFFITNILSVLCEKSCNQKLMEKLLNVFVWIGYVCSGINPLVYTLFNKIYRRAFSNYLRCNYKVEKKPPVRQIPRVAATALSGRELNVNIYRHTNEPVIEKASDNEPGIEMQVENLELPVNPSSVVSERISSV
Test: 5-HT2C receptor-stimulated calcium mobilization (FLIPR) in CHO cells
Type: cell-based
Conditions: calcium mobilization, CHO cells stably expressing human 5-HT2C; read-out: 5-HT2C Function EC50
EC50 values, listed per item
Express the result in nM but write the number alone.

Illustrative cases are given below, each with its answer.
molecule: CNCC1Cc2cc(Cl)cc(-c3ccc(F)cc3F)c2O1 (racemic)
EC50 (nM): 257

molecule: NCC1Cc2cccc(-c3cc(Cl)ccc3Cl)c2O1 (single isomer, unassigned; (-)) [Example 165]
EC50 (nM): 80

molecule: NCC1Cc2cc(F)cc(-c3ccccc3Cl)c2O1 (racemic) [Example 100]
EC50 (nM): 120

--- query ---
In: EC50 for CNCC1Cc2cc(C)cc(-c3cc(Cl)ccc3Cl)c2O1 (single isomer, unassigned; (+)) [Example 487] ?
Out: 3

====

Target: human 5-HT2C receptor (Homo sapiens, UniProt P28335)
Experiment: 5-HT2C receptor-stimulated calcium mobilization (FLIPR) in CHO cells
Type: cell-based
Conditions: calcium mobilization, CHO cells stably expressing human 5-HT2C; read-out: 5-HT2C Function EC50
reported.endpoint: pEC50
Keep in mind that pEC50 stands for -log10 of concentration in molar terms.

Worked cases, pEC50 given:
molecule: NCC1Cc2cccc(-c3ccc(F)cc3)c2O1 (racemic) [Example 73]
pEC50: 7.39

molecule: CNCC1Cc2cccc(-c3ccccc3C)c2O1 (racemic) [Example 406]
pEC50: 8.05

molecule: N#Cc1cc2c(c(-c3ccccc3Cl)c1)OC(CN)C2 (racemic) [Example 312]
pEC50: 7.60

In: Report pEC50 for Cc1ccc(Cl)cc1-c1cccc2c1OC(CN)C2 (racemic) [Example 168] please.
Out: 9.00

In: Next: Cc1cc2c(c(-c3ccccc3)c1)OC(CN)C2 (racemic) [Example 281]
Out: 7.46

In: Do the same for CNCC1Cc2cccc(-c3cc(F)ccc3F)c2O1 (racemic) [Example 428] please
Out: 7.16

In: Same lookup for CC(C)c1cc2c(c(-c3ccccc3Cl)c1)OC(CN)C2 (racemic) [Example 308] , please.
Out: 7.62

In: Would you mind doing NCC1Cc2cccc(-c3ccccc3)c2O1 (single isomer, unassigned; (+)) [Example 37] as well?
Out: 9.00

In: Similarly, CNCC1Cc2cccc(-c3ccccc3Cl)c2O1 (single isomer, unassigned; (-)) [Example 411] ?
Out: 7.24

In: Same thing, different molecule: Cc1cccc(C)c1-c1cc(Cl)cc2c1OC(CN)C2 (single isomer, unassigned; (+)) [Example 262]
Out: 6.33

In: Here is the next molecule: CNCC1Cc2ccc(F)c(-c3ccccc3Cl)c2O1 (racemic) [Example 402]
Out: 10.00

In: Now try Cc1ccccc1-c1cccc2c1CC(CN)O2 (racemic) [Example 4] .
Out: 6.25

In: Query CNCC1Cc2cc(F)cc(-c3ccc(Cl)cc3Cl)c2O1 (racemic) [Example 445] next
Out: 9.00

In: Again, but for CNCC1Cc2cc(C)cc(-c3ccccc3Cl)c2O1 (racemic) [Example 476]
Out: 8.30

In: Record: Cc1ccc(C)c(-c2cc(F)cc3c2OC(CN)C3)c1 (racemic) [Example 222]
Out: 6.92

In: Now the molecule NCC1Cc2cccc(-c3ccccc3F)c2O1 (racemic) [Example 50]
Out: 7.85

In: Moving on to COc1cc2c(c(-c3cc(Cl)ccc3Cl)c1)OC(CN)C2 (single isomer, unassigned; (-)) [Example 369]
Out: 6.55

In: Next record, please: CNCC1Cc2cccc(-c3ccccc3Cl)c2O1 (single isomer, unassigned; (+)) [Example 410]
Out: 10.30

====

Target: human 5-hydroxytryptamine-2C (h5-HT2C) receptor (Homo sapiens)
Construct: expressed in transfected cells; host or cells: CHO (Chinese Hamster Ovary) cells; membranes
Assay: [125I]DOI binding to membranes of CHO cells expressing the human 5-HT2C receptor
Settings: [125I]DOI radioligand, CHO cell membranes, room temperature 60 min; read-out: 5-HT2C Affinity Ki
pKi: −log10 of the molar value.
Classification field: enter class 1 for pKi values not below 8, class 0 for values below it.

molecule: NCC1Cc2cc(F)cc(-c3ccoc3)c2O1 (racemic)
label.value: class 1

molecule: NCC1Cc2cccc(-c3ccccc3F)c2O1 (racemic) [Example 50]
label.value: class 1

molecule: CNCC1Cc2cc(C)cc(-c3cc(Cl)ccc3Cl)c2O1 (racemic) [Example 486]
label.value: class 1

molecule: NCC1Cc2cc(Cl)cc(-c3cccc(Cl)c3)c2O1 (racemic)
label.value: class 0

In: # bool: pKi of Cc1ccc(C)c(-c2cc(F)cc3c2OC(CN)C3)c1 (racemic) >= 8
Out: class 0

In: Another molecule to look at: NCC1Cc2cccc(Nc3ccccc3)c2O1 (racemic)
Out: class 0

In: Moving on to the next molecule: NCC1Cc2cc(-c3ccccc3Cl)cc(F)c2O1 (racemic)
Out: class 0

In: Repeat for the following molecule: CNCC1Cc2cc(F)cc(-c3ccccc3OC)c2O1 (racemic)
Out: class 1

====

The molecules listed here are annotated with their Emax.
Molecular target: human 5-HT2C receptor (Homo sapiens, UniProt P28335)
Test: 5-HT2C receptor-stimulated calcium mobilization (FLIPR) in CHO cells;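 note: Fluo-3-AM fluorescence read on FLIPR every 1 s, agonist added after 10 baseline reads, response taken as peak minus lowest raw fluorescence count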
Format: cell-based
Details: CHO, percentage of the response observed with a maximally effective concentration of 5-HT; read-out: 5-HT2C Function Emax (%)
Report the value in % with no unit label.

See these solved cases before continuing.
molecule: CCNCC1Cc2cc(Cl)cc(-c3c(C)cccc3C)c2O1 (racemic)
reported.endpoint: Emax
unit.of.measurement: %
result.number: 90

molecule: COc1ccc(-c2cccc3c2OC(CN)C3)cc1 (racemic)
reported.endpoint: Emax
unit.of.measurement: %
result.number: 95

molecule: Cc1cccc(C)c1-c1cc(Cl)cc2c1OC(CNC1CCC1)C2 (racemic)
reported.endpoint: Emax
unit.of.measurement: %
result.number: 20

molecule: Cc1ccccc1-c1cc(C(F)(F)F)cc2c1OC(CN)C2 (racemic)
reported.endpoint: Emax
unit.of.measurement: %
result.number: 90

molecule: Cc1cccc(C)c1-c1cc(Cl)cc2c1OC(CN)C2 (racemic) [Example 260]
reported.endpoint: Emax
unit.of.measurement: %
result.number: 90

In: Dear colleague, I am looking for the recorded Emax of the following molecule: CNCC1Cc2cc(F)cc(-c3cccnc3)c2O1 (racemic)
Out: 90

In: Would you mind doing NCC1Cc2cc(F)cc(-c3cccc(Cl)c3Cl)c2O1 (racemic) as well?
Out: 70

In: Follow-up item: CNCC1Cc2cccc(-c3c(Cl)cc(Cl)cc3Cl)c2O1 (racemic)
Out: 80

In: How about Cc1ccccc1-c1cccc2c1CC(CN)O2 (racemic) [Example 4] ?
Out: 100

In: Please answer likewise for NCC1Cc2cccc(-c3ccc(C(F)(F)F)cc3)c2O1 (racemic)
Out: 95

In: Same thing, different molecule: CNCC1Cc2cc(C)cc(-c3ccccc3Cl)c2O1 (racemic)
Out: 100

In: Then what about the molecule Cc1cccc(C)c1-c1cccc2c1CC(CN)O2 (single isomer, unassigned; (+)) ?
Out: 40

In: NCC1Cc2cc(F)cc(-c3c(F)cccc3F)c2O1 (racemic) , same question.
Out: 90

In: Next record, please: NCC1Cc2cccc(-c3cc(Cl)ccc3Cl)c2O1 (racemic)
Out: 90

In: Subsequent entry: NCC1Cc2cc(C(F)(F)F)cc(-c3ccc(F)cc3F)c2O1 (racemic)
Out: 80

In: What do you have for Cc1cc2c(c(-c3ccc(F)cc3)c1)OC(CN)C2 (racemic) ?
Out: 100

In: Then Cc1cccc(-c2cc(C)cc3c2OC(CN)C3)c1 (racemic) ?
Out: 100

In: Another molecule: N#Cc1cc2c(c(-c3ccccc3Cl)c1)OC(CN)C2 (racemic)
Out: 90

In: Next entry: CNCC1Cc2cc(OC)cc(-c3c(C)cccc3C)c2O1 (racemic) [Example 504]
Out: 90

In: What about this molecule? COc1cc2c(c(-c3ccccc3F)c1)OC(CN)C2 (racemic)
Out: 100

In: Please answer likewise for NCC1Cc2cccc(-c3ccsc3)c2O1 (single isomer, unassigned; (+)) [Example 45]
Out: 90
